Entry source: patent US20170210813A1

# testedOn: T1, hPDGFRb.mmh (human, UniProt P09619 33-531)
# T1 construct: Soluble monomeric construct; also called soluble human PDGFR-beta.mmh
# protocolText: blocking ELISA, biot-hPDGFRb.mmh to coated PDGF-BB
Give measured % Maximum Blocking for each item. Keep answers brief.

Example binders with recorded % Maximum Blocking:
H1M3361N (antibody, mouse IgG1, V domains shown, mouse IgG1 Fc (H1M prefix)) VH: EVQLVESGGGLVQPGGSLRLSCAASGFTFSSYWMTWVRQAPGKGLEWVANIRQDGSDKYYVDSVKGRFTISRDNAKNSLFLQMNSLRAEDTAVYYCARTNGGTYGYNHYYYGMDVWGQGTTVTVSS VL: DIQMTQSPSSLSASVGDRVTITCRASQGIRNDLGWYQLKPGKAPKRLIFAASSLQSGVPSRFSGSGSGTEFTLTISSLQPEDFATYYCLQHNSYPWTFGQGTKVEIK    76%
H1M3374N (antibody, V domains shown, mouse Fc format; also called H2M3374N) VH: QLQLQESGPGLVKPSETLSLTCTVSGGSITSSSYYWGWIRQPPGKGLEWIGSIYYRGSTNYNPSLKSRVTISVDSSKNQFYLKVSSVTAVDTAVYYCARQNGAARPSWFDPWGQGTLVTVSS VL: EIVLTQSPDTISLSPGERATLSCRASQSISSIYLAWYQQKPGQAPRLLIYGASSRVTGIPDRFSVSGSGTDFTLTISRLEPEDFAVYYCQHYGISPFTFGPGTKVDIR    88%
H2M3368N (antibody, V domains shown, mouse Fc (H2M prefix; isotype not spelled out)) VH: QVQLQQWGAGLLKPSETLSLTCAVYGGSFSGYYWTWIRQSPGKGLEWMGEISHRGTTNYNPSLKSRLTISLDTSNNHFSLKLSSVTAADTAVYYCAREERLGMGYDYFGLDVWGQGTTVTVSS VL: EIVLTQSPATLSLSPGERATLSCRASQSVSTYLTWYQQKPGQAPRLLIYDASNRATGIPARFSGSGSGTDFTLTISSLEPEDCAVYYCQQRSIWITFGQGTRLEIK    79%

Look up % Maximum Blocking for the entries below, preserving their order.
1. H4H3096S (antibody, human IgG4, V domains shown, human IgG4 Fc (H4H prefix)) VH: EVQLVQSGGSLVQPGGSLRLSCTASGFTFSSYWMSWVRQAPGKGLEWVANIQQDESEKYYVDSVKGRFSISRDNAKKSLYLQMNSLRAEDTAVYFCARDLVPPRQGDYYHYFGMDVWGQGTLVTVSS VL: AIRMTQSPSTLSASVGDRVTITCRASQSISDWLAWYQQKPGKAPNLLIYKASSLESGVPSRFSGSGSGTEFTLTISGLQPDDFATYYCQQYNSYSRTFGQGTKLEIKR
2. H4H3103S (antibody, human IgG4, V domains shown, human IgG4 Fc (H4H prefix)) VH: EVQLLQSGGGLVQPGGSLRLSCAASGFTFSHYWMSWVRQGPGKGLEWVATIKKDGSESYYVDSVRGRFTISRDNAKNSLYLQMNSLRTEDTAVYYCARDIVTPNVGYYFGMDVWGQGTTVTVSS VL: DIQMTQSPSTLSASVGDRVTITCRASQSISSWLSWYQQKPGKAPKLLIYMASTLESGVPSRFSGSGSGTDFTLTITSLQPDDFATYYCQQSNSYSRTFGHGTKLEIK

[out]
1. 84%
2. 90%
